Target: T1, human glucose-dependent insulinotropic polypeptide receptor (GIPR), expressed on CHO-K1 cells (human, UniProt P48546 22-466)
T1 sequence (looked up): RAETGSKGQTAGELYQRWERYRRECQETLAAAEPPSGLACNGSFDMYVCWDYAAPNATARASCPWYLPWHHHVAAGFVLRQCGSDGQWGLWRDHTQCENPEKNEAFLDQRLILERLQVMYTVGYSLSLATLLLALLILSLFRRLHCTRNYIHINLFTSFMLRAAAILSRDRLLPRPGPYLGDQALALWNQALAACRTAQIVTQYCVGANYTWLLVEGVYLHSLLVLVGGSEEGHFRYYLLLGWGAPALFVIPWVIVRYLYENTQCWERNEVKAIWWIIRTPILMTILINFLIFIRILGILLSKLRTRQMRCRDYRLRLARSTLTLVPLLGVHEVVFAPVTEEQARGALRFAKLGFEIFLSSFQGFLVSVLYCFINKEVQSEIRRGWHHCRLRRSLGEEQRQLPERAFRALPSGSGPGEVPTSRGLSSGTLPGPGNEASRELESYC
Assay: cell-based or functional assay
Numbered stars: 1 amine (or outer) side, 2 acyl side, 3 side chain; on linkers, the order of the positions; unused ones are H or OH. Square brackets hold non-standard residues; d marks the D form. Primed or numbered codes have the meaning given here. Side chains are listed from the residue outwards. Ends that are not written are not given here. * marks the point of attachment. C18 = C18 fatty acid (C16-C22 fatty acids conjugated via γGlu/8-amino-3,6-dioxaoctanoic acid spacers); C18″ = C18 fatty acid moiety (of 2OEG-γGlu-C18, K*); γGlu = O=C(O)[C@H](CCC(=O)[*:2])N[*:1]; AEEA = NCCOCCOCC(=O)O; Aib = CC(C)(N)C(=O)O; MAL = maleimide
Catalogue of Relative % to native ligand values

- binder: "Y[Aib]QGTFTSDYSKYLDYMMARDFVQWLIEGGPSSGAPPPSC-NH2 (not fully specified (residue 40)) [Peptide No. 5-1A]"
  Relative % to native ligand (%): 1
- binder: "H[Aib]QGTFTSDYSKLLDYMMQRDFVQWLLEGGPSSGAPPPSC([MAL-AEEA-AEEA-γGlu-C18])-NH2 [Peptide No. 5-5A]"
  Relative % to native ligand (%): 14
- binder: "Y[Aib]QGTFTSDYSK([AEEA-AEEA-γGlu-C18″])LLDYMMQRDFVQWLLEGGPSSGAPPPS-NH2 [Peptide No. 5-3D]"
  Relative % to native ligand (%): 1050
- binder: "Y[Aib]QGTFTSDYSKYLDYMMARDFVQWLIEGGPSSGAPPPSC-NH2 [Peptide No. 5-1]"
  Relative % to native ligand (%): 13
- binder: "Y[Aib]QGTFTSDK([AEEA-AEEA-γGlu-C18″])SKYLDYMMARDFVQWLIEGGPSSGAPPPS-NH2 [Peptide No. 5-1E]"
  Relative % to native ligand (%): 1
